Please provide measured Activity for the entries that follow.
- Test system: Prosopis farcta
- Protocol Text: Herbicidal activity against Prosopis farcta assessed as shoot dry weight at 1000 l/ha applied twice followed by harvest measured after vegetative regrowth (reference value: 2.784 metric tons/ha)
- Assay type: functional
# number then unit; no other words

>>> reported_measurement("CNC.O=C(O)COc1ccc(Cl)cc1Cl")
"0.511 MT/ha"
>>> reported_measurement("C[n+]1ccc(-c2cc[n+](C)cc2)cc1")
"0.764 MT/ha"

Give measured Activity for every item shown.
1. O=C(O)COc1nc(Cl)c(Cl)cc1Cl
2. CCOc1cc(Oc2ccc(C(F)(F)F)cc2Cl)ccc1[N+](=O)[O-]
3. CCCCC(CC)COC(=O)COc1ccc(Cl)cc1Cl (configuration not stated)

0.05 MT/ha
1.147 MT/ha
0.063 MT/ha

Give measured Activity for every item shown.
1. Cc1cc(Cl)ccc1OC(C)C(=O)O (configuration not stated)
2. O=C(O)CNCP(=O)(O)O [GLYPHOSATE]

["1.125 MT/ha", "0.976 MT/ha"]

---

- Tested on: Prosopis farcta
- Protocol Text: Herbicidal activity against Prosopis farcta assessed as shoot dry weight at 1000 l/ha applied once (reference value: 0.833 metric tons/ha)
- Format: functional
Measure: Activity (MT/ha)
One number for each entry, in MT/ha.

>>> reported_measurement("O=C(O)COc1nc(Cl)c(Cl)cc1Cl")
0.567
>>> reported_measurement("CCCCC(CC)COC(=O)COc1ccc(Cl)cc1Cl (configuration not stated)")
0.625
>>> reported_measurement("Cc1cc(Cl)ccc1OC(C)C(=O)O (configuration not stated)")
0.423

Give measured Activity for every item shown.
1. CNC.O=C(O)COc1ccc(Cl)cc1Cl
2. C[n+]1ccc(-c2cc[n+](C)cc2)cc1
3. CCOc1cc(Oc2ccc(C(F)(F)F)cc2Cl)ccc1[N+](=O)[O-]
4. O=C(O)CNCP(=O)(O)O [GLYPHOSATE]

1: 0.593; 2: 0.593; 3: 0.26; 4: 0.491

These measurements were taken from ChEMBL document CHEMBL3046855.
